Molecular target: SMYD3 (Homo sapiens (Human), UniProt Q9H7B4)
Sequence (Q9H7B4 whole entry): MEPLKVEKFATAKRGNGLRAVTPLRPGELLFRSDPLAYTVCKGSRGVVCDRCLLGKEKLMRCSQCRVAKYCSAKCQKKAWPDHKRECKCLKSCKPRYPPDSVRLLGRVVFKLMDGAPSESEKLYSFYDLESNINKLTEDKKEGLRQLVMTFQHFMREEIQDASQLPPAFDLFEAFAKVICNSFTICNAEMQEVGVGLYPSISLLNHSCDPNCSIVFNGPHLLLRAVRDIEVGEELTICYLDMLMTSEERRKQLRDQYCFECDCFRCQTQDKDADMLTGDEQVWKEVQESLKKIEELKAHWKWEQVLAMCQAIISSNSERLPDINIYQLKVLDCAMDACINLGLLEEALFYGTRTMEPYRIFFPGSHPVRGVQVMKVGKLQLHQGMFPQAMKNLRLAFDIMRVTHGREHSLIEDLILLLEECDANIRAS
Assay: SMYD3 Cell Assay (Trimethyl-MEKK2 In-Cell Western, 293T/17 cells)
Assay type: cell-based
Conditions: 293T/17 cells transfected with MEKK2-flag and SMYD3; 24 hours; trimethyl-MEKK2 signal; average of n = 1 to n = 50
pIC50: −log10 of the molar value.
parameter: pIC50

{"compound": "C=CS(=O)(=O)N1CCC(NC(=O)c2cc(C3CC3)on2)C[C@H]1C (stereo partly shown)", "parameter": "pIC50", "value": 5.66}

(I) C=CS(=O)(=O)N1CCC(NC(=O)c2cc(C3CC3)on2)C[C@@H]1C (stereo partly shown)
(II) O=C(NC1CCN(C(=O)CCl)CC1)c1cc(C2CC2)on1
# input Sorting by pIC50 in descending order, would I or II appear first? To answer, give the label that identifies your chosen option.
# output I

====

Biological target: SMYD3 (Homo sapiens (Human))
Assay: SMYD3 Biochemical Assay (MEKK2 protein substrate, 3H-SAM, SPA)
Conditions: 30 min preincubation with SMYD3, average of n = 1 to n = 50, read-out: SMYD3 Biochem IC50
pIC50: −log10 of the molar value.
parameter: pIC50

{"compound": "C=CS(=O)(=O)N1CCC(NC(=O)c2cc(C3CC3)on2)CC1 [compound 9]", "pIC50": 4.50}
{"compound": "C=CS(=O)(=O)N[C@H]1CC[C@H](NC(=O)c2cc(C3CC3)on2)CC1 [Cpd. No. 2]", "pIC50": 4.51}
{"compound": "C=CS(=O)(=O)N1CCC(NC(=O)c2cc(C3CC3)on2)C[C@H]1C (stereo partly shown) [compound 7]", "pIC50": 5.43}

(a) C=CS(=O)(=O)N1CCC(NC(=O)c2cc(C3CC3)on2)C[C@@H]1C (stereo partly shown) [compound 6]
(b) C=CC(=O)N[C@H]1CC[C@H](NC(=O)c2cc(C3CC3)on2)CC1 [compound 3]
(c) O=C(NC1CCN(C(=O)CCl)CC1)c1cc(C2CC2)on1 [Cpd. No. 4]
# input # ascending order, key=pIC50 Your answer should be the labels, listed in the requested order.
# output b, c, a

====

Target: SMYD3 (Homo sapiens (Human))
Assay: SMYD3 Biochemical Assay (MEKK2 protein substrate, 3H-SAM, SPA)
Conditions: 30 min preincubation with SMYD3, average of n = 1 to n = 50, read-out: SMYD3 Biochem IC50
Overview of reported IC50 across a group of molecules:

Look over these answered cases.
{"molecule": "C=CC(=O)N1CCC(NC(=O)c2cc(C3CC3)on2)CC1 [Cpd. No. 5]", "value": "> 100 µM"}
{"molecule": "C=CS(=O)(=O)N1CC(NC(=O)c2cc(C3CC3)on2)C1 [Cpd. No. 1]", "value": "> 10 µM"}
{"molecule": "C=CS(=O)(=O)N[C@H]1CC[C@@H](NC(=O)c2cc(C3CC3)on2)CC1 [compound 8]", "value": "> 10 µM"}

Let us examine a further case.
# input Supply reported IC50 belonging to this molecule: C=CS(=O)(=O)N1CCC(NC(=O)c2cc(C3CC3)on2)C1 (stereo not shown) [compound 10]
# output > 50 µM
